Source of measurements: patent US11286263B2

# Tested on: A2780
# Protocol details: Antiproliferation assay A2780 (Assay 7)
# Assay type: cell-based
# Assay setup: A2780 cells, 72 h, CellTiter-Glo; single determinations; listed as 09; read-out: IC50 Antiproli A2780
Measure name: IC50 (µM)
Entry rule: numbers only, all in µM.

Q: State IC50 on A2780. Entry: Cc1nn(C)c2c1-c1c(F)ccc3c(CCCOc4cccc5ccccc45)c(C(=O)O)n(c13)C/C=C\COC2 (racemic) [Example 9]
A: 20.7

###

Answer each item with its documented IC50.
# System: SUDHL5
# Protocol details: Induction of cytotoxicity, SUDHL5 (Assay 6)
# Assay setup: Homo sapiens, SU-DHL-5, 5 h, read-out: IC50 Cytotox SUDHL5 [M] (median), SUDHL5 cells, 5 h, CellTiter-Glo
Hi! Could you send only the number? It should be in M, unit omitted.

Q: Return reported IC50. Input molecule: Cc1nn(C)c2c1-c1c(F)ccc3c(CCCOc4cccc5cc(F)ccc45)c(C(=O)O)n(c13)CCCCOC2 (racemic)
A: 1.1e-06

Q: Return IC50 for the following molecule: CCc1c2c(nn1C)COC/C=C\Cn1c(C(=O)O)c(CCCOc3cccc4ccccc34)c3ccc(F)c-2c31 (racemic)
A: 1.5e-06

Q: Dear colleague, please send me the reported IC50 for CCc1c2c(nn1C)COCCCCn1c(C(=O)O)c(CCCOc3cccc4cc(F)ccc34)c3ccc(F)c-2c31 (racemic) when you can.
A: 5.1e-07

Q: Given CCc1nn(C)c2c1-c1c(F)ccc3c(CCCOc4cccc5cc(F)ccc45)c(C(=O)O)n(c13)CCCCOC2 (racemic) , respond with its IC50.
A: 1e-06

Q: In one line, give reported IC50 of the entry Cc1c2c(nn1C)COCCCCn1c(C(=O)O)c(CCCOc3cccc4cc(F)ccc34)c3ccc(F)c-2c31 (racemic) .
A: 6e-07

Q: Report measured IC50; entry is CCc1c2c(nn1C)COCCCCn1c(C(=O)O)c(CCCOc3cc(C)c(Cl)c(C)c3)c3ccc(F)c-2c31 (racemic)
A: 2.9e-06

Q: // fetch IC50 given entry CCc1nn(C)c2c1-c1c(F)ccc3c(CCCOc4cccc5ccccc45)c(C(=O)O)n(c13)CCCCOC2 (racemic)
A: 2.1e-06
